Attribution: patent US20240408223A1

tested system: UniProt:P07858
protocol: Cathepsin B cleavage assay of linker-payloads
condition details: Table 1C
value kind: CapB cleavage rate (%) at 4 hrs
// note: answer is a bare numeric in %

# molecule, CapB cleavage rate (%) at 4 hrs
measured = [
    ("CCCC1O[C@@H]2C[C@H]3[C@@H]4C[C@H](F)C5=CC(=O)C=C[C@]5(C)[C@@]4(F)[C@@H](O)C[C@]3(C)[C@]2(C(=O)CNC(=O)OCc2ccc(NC(=O)[C@H](CCCNC(N)=O)NC(=O)[C@@H](NC(=O)[C@@H](CCCCNC(=O)COC3CCCCCc4c3nnn4CCOCCOCCOCCOCCC(=O)NCCS(=O)(=O)O)NC(=O)CCOCCOCCOCCOCCNC(=O)CCC(=O)N3Cc4ccccc4C#Cc4ccccc43)C(C)C)cc2)O1 (stereo partly drawn)", 79.6),
    ("CCCC1O[C@@H]2C[C@H]3[C@@H]4C[C@H](F)C5=CC(=O)C=C[C@]5(C)[C@@]4(F)[C@@H](O)C[C@]3(C)[C@]2(C(=O)COc2ccc(NC(=O)[C@H](CCCNC(N)=O)NC(=O)[C@@H](NC(=O)[C@@H](CCCCNC(=O)COC3CCCCCc4c3nnn4CCOCCOCCOCCOCCC(=O)NCCS(=O)(=O)O)NC(=O)CCOCCOCCOCCOCCNC(=O)CCC(=O)N3Cc4ccccc4C#Cc4ccccc43)C(C)C)cc2)O1 (stereo partly drawn)", 31.0),
]

// next item, CapB cleavage rate (%) at 4 hrs requested
Prompt line: What does the record list as CapB cleavage rate (%) at 4 hrs for CC(C)[C@H](NC(=O)[C@@H](CCCCNC(=O)COC1CCCCCc2c1nnn2CCOCCOCCOCCOCCC(=O)NCCS(=O)(=O)O)NC(=O)CCOCCOCCOCCOCCNC(=O)CCC(=O)N1Cc2ccccc2C#Cc2ccccc21)C(=O)N[C@@H](C)C(=O)Nc1ccc2c(c1)[C@@]1(C)CCC[C@](C)(C(=O)NC(=O)[C@@]3(C)CCC[C@]4(C)c5cc(O)ccc5CC[C@@H]34)[C@@H]1CC2 (stereo partly drawn) ?
Response line: 44.2
